target.desc: A-beta1-42 (UniProt P05067)
Sequence (P05067 672-713 limits assumed): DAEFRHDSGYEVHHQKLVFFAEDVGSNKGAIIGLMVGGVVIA
experimental.protocol: iodixanol density gradient centrifugation of A-beta1-42 with FITC-labelled peptide; dye in fraction 12
Non-standard residues stand in square brackets, D forms with d. No end group written: not given here.
observation.type: Peptide bound in fraction 12 [%] (%)

Observe how each entry below is paired with its result.
[
  {
    "binder": "[dR][dP][dR][dT][dR][dL] [NT-D3 (D3-N-Terminus) (SEQ ID NO: 6)]",
    "Peptide bound in fraction 12 [%] [%]": 0
  },
  {
    "binder": "[dP][dT][dL][dH][dT][dH][dN][dR][dR][dR][dR][dR] (also: FITC label, site not given here) [RD2 (rational D3) (SEQ ID NO: 2)]",
    "Peptide bound in fraction 12 [%] [%]": 20
  },
  {
    "binder": "[dR][dP][dR][dT][dR][dL][dH][dT][dH][dR][dN][dR] (also: FITC label, site not given here) [D3 (SEQ ID NO: 11)]",
    "Peptide bound in fraction 12 [%] [%]": 4
  }
]

I. [dR][dP][dR][dT][dR][dL][dR][dN][dR] (also: FITC label, site not given here) [D3Δhth (D3 with deletion hth) (SEQ ID NO: 1)]
II. [dR][dR][dP][dT][dL][dR][dH][dT][dH][dN][dR][dR] (also: FITC label, site not given here) [RD3 (rational D3) (SEQ ID NO: 4)]
Hey, which is lower on measured Peptide bound in fraction 12 [%], I or II ? Refer to your chosen item by its label in the answer.
I

Numbers sourced from patent US20190085030A1.
